biological target: Protein deacetylase HDAC6 (Homo sapiens, UniProt Q9UBN7); assay: Inhibition of recombinant human N-terminal GST-tagged HDAC6 (1 to 1215 residues) expressed in Sf9 insect cells using Z-Lys(Ac)-AMC as fluorogenic substrate incubated for 90 mins by microplate reader analysis
Sequence (Q9UBN7 whole entry, the tested form may be a part): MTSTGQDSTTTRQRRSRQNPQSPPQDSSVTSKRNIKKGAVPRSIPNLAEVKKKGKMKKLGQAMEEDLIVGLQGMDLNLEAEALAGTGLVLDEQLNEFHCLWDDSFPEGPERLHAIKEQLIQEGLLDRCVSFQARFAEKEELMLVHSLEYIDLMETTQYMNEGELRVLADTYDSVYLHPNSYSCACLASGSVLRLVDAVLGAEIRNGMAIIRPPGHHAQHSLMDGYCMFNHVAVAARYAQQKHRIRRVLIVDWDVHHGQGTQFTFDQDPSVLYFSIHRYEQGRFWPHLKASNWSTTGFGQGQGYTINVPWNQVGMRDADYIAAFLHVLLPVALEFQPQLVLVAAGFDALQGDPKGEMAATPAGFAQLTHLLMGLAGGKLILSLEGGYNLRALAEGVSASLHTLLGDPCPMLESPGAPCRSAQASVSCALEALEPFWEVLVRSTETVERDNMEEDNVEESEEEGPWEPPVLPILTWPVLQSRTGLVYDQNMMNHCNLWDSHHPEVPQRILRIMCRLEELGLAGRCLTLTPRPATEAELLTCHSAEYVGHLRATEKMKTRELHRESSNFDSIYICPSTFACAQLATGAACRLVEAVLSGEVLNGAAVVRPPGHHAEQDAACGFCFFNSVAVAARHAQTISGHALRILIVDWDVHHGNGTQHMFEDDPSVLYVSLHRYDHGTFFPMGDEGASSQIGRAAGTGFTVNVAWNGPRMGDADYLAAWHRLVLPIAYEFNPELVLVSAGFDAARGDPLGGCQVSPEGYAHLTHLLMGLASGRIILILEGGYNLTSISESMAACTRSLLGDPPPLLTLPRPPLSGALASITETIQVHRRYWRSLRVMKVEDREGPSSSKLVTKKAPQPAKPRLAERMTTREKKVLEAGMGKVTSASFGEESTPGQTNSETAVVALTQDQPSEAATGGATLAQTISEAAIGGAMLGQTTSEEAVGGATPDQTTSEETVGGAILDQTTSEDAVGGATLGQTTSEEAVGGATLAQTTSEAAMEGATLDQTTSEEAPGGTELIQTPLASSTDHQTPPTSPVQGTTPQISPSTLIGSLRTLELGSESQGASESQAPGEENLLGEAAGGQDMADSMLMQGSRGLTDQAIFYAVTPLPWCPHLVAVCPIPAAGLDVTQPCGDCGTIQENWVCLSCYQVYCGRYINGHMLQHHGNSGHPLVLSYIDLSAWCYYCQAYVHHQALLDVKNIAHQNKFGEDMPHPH

compound	target.entity	IC50 [nM]
O=C(CN(Cc1ccc(C(=O)NO)cc1F)C(=O)c1ccccc1F)NC1CCCCC1	Protein deacetylase HDAC6 (Homo sapiens, UniProt Q9UBN7)	18
Cc1cc(C)cc(C(=O)N(CC(=O)NC(C)(C)C)Cc2ccc(C(=O)NO)cc2F)c1	Protein deacetylase HDAC6 (Homo sapiens, UniProt Q9UBN7)	24
CN(C)c1ccc(C(=O)N(CC(=O)NC2CCCCC2)Cc2ccc(C(=O)NO)cc2F)cc1	Protein deacetylase HDAC6 (Homo sapiens, UniProt Q9UBN7)	16
COc1ccccc1C(=O)N(CC(=O)NC(C)(C)C)Cc1ccc(C(=O)NO)cc1F	Protein deacetylase HDAC6 (Homo sapiens, UniProt Q9UBN7)	17
CN(C)c1ccc(C(=O)N(CC(=O)NC(C)(C)C)Cc2ccc(C(=O)NO)cc2F)cc1	Protein deacetylase HDAC6 (Homo sapiens, UniProt Q9UBN7)	20
CC(C)(C)NC(=O)CN(Cc1ccc(C(=O)NO)cc1F)C(=O)c1ccccc1Cl	Protein deacetylase HDAC6 (Homo sapiens, UniProt Q9UBN7)	21

----------
target: UniProt:P56524; test: Inhibition of recombinant human N-terminal GST-tagged/C-terminal His-tagged HDAC4 (627 to 1084 residues) expressed in baculovirus infected Sf9 insect cells using Boc-Lys (trifluoroacetyl)-AMC as substrate incubated for 90 mins by microplate reader analysis
Sequence (P56524 whole entry, the tested form may be a part): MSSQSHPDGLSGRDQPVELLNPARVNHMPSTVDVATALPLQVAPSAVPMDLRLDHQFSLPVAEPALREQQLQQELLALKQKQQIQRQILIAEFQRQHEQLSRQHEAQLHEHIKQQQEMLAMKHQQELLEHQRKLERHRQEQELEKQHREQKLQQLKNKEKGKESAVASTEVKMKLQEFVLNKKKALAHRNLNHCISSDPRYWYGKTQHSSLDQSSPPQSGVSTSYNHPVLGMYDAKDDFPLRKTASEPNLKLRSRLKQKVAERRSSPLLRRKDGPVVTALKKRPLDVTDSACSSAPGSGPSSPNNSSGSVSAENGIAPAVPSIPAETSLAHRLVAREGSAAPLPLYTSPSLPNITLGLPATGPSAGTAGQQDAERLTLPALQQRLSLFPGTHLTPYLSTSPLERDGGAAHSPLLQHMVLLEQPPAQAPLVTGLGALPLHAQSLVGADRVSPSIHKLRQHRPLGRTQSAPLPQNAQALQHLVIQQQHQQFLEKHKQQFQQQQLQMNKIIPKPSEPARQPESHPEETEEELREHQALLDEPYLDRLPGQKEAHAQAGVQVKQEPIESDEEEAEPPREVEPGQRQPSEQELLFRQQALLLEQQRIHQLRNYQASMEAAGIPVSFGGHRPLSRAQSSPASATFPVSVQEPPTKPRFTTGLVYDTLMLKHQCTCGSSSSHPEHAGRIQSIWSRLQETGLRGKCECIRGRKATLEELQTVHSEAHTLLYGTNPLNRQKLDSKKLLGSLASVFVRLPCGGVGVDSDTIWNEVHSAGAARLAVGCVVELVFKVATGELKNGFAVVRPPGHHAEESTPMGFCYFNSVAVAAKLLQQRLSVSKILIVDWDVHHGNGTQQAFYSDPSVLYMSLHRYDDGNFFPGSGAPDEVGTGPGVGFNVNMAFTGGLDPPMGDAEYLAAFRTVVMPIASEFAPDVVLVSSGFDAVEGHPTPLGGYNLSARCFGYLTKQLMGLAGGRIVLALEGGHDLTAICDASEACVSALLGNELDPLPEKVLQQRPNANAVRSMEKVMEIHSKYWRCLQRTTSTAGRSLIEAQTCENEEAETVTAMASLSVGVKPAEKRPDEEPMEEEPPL

compound	IC50
CC(C)c1ccccc1C(=O)N(CC(=O)NC(C)(C)C)Cc1ccc(C(=O)NO)cc1F	> 10 µM

----------
target: Histone deacetylase 1 (Homo sapiens, UniProt Q13547); assay: Inhibition of recombinant human C-terminal FLAG/His-tagged HDAC1 (1 to 482 residues) expressed in Sf9 insect cells using Z-Lys(Ac)-AMC as fluorogenic substrate incubated for 90 mins by microplate reader analysis
Sequence (Q13547 whole entry, the tested form may be a part): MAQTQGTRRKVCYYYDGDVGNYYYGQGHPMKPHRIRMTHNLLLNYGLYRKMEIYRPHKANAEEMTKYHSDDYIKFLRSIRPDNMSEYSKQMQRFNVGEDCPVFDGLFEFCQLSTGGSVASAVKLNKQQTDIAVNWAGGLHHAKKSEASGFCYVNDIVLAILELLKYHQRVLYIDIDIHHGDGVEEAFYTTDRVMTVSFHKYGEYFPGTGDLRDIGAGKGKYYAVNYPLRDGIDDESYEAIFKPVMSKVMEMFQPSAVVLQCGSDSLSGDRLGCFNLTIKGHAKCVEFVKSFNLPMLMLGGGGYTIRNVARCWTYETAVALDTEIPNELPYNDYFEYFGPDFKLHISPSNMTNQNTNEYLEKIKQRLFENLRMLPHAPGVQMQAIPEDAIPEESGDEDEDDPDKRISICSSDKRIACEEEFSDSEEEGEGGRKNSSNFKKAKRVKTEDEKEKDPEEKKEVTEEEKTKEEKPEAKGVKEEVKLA
pIC50: −log10 of the molar value.
Lab note: compare pIC50 against 7. Equal or greater, write Yes. Smaller, write No.

compound	discrete.label
Cc1cc(C)cc(C(=O)N(CC(=O)NC2CCCCC2)Cc2ccc(C(=O)NO)cc2)c1	No
CC(C)c1ccccc1C(=O)N(CC(=O)NC(C)(C)C)Cc1ccc(C(=O)NO)cc1F	No
CC(C)(C)NC(=O)CN(Cc1ccc(C(=O)NO)cc1F)C(=O)c1ccccc1Cl	No
CN(C)c1ccc(C(=O)N(CC(=O)NCc2ccccc2)Cc2ccc(C(=O)NO)cc2F)cc1	Yes

----------
biological target: Protein deacetylase HDAC6 (Homo sapiens, UniProt Q9UBN7); experiment: Inhibition of recombinant human N-terminal GST-tagged HDAC6 (1 to 1215 residues) expressed in Sf9 insect cells using Z-Lys(Ac)-AMC as fluorogenic substrate incubated for 90 mins by microplate reader analysis; conditions: sf9
pIC50: −log10 of the molar value.

compound	pIC50
Cc1ccccc1C(=O)N(CC(=O)NC(C)(C)C)Cc1ccc(C(=O)NO)cc1	7.29
COc1ccccc1C(=O)N(CC(=O)NC(C)(C)C)Cc1ccc(C(=O)NO)cc1	7.42

----------
target: Protein deacetylase HDAC6 (Homo sapiens); assay: Inhibition of recombinant human N-terminal GST-tagged HDAC6 (1 to 1215 residues) expressed in Sf9 insect cells using Z-Lys(Ac)-AMC as fluorogenic substrate incubated for 90 mins by microplate reader analysis
pIC50: −log10 of the molar value.

compound	target.entity	pIC50
Cc1cc(C)cc(C(=O)N(CC(=O)NCc2ccccc2)Cc2ccc(C(=O)NO)cc2F)c1	Protein deacetylase HDAC6 (Homo sapiens)	7.89
CC(C)(C)NC(=O)CN(Cc1ccc(C(=O)NO)cc1F)C(=O)c1ccccc1F	Protein deacetylase HDAC6 (Homo sapiens)	7.59
COc1ccccc1C(=O)N(CC(=O)NC1CCCCC1)Cc1ccc(C(=O)NO)cc1F	Protein deacetylase HDAC6 (Homo sapiens)	7.70
Cc1cc(C)cc(C(=O)N(CC(=O)NC2CCCCC2)Cc2ccc(C(=O)NO)cc2)c1	Protein deacetylase HDAC6 (Homo sapiens)	7.40
Cc1ccccc1C(=O)N(CC(=O)NC1CCCCC1)Cc1ccc(C(=O)NO)cc1F	Protein deacetylase HDAC6 (Homo sapiens)	7.74
CC(C)(C)NC(=O)CN(Cc1ccc(C(=O)NO)cc1F)C(=O)c1ccccc1C(F)(F)F	Protein deacetylase HDAC6 (Homo sapiens)	7.57
Cc1ccccc1C(=O)N(CC(=O)NC(C)(C)C)Cc1ccc(C(=O)NO)cc1F	Protein deacetylase HDAC6 (Homo sapiens)	7.57
CN(C)c1ccc(C(=O)N(CC(=O)NCc2ccccc2)Cc2ccc(C(=O)NO)cc2)cc1	Protein deacetylase HDAC6 (Homo sapiens)	7.96
Cc1cc(C)cc(C(=O)N(CC(=O)NC2CCCCC2)Cc2ccc(C(=O)NO)cc2F)c1	Protein deacetylase HDAC6 (Homo sapiens)	7.70
